System: MDA-MB-231 cell line
assay-protocol: MTT cytotoxicity assay, 48 h, alone and in combination (IC50 and Combination Index)
Format: cell-based
reported-conditions: SEQ ID NO: 1 at 10 μg/mL; read-out: IC50 of Carboplatin
pIC50: −log10 of the molar value.
observation-type: pIC50

> print(dat)
                                   molecule  numeric.readout
1  N.N.O=C([O-])C1(C(=O)[O-])CCC1.[Pt+2] [Carboplatin, reference compound]             5.31

----------
System: PANC-1 cell line
assay-protocol: MTT cytotoxicity assay, 48 h, alone and in combination (IC50 and Combination Index)
Type: cell-based
reported-conditions: Homo sapiens, PANC-1, read-out: IC50 of 5-FU, SEQ ID NO: 1 at 10 μg/mL
observation-type: IC50 (nM)

> print(dat)
                                   molecule  numeric.readout
1  O=c1[nH]cc(F)c(=O)[nH]1 [5-FU, 5-Fluorouracil, reference compound]             1260

The reported numbers originate from patent US20220257704A1.
